Molecular target: PDE-4A1A (Homo sapiens, UniProt P27815)
Construct: purchased Sigma SRP0262
Sequence (P27815 1-647 isoform P27815-4): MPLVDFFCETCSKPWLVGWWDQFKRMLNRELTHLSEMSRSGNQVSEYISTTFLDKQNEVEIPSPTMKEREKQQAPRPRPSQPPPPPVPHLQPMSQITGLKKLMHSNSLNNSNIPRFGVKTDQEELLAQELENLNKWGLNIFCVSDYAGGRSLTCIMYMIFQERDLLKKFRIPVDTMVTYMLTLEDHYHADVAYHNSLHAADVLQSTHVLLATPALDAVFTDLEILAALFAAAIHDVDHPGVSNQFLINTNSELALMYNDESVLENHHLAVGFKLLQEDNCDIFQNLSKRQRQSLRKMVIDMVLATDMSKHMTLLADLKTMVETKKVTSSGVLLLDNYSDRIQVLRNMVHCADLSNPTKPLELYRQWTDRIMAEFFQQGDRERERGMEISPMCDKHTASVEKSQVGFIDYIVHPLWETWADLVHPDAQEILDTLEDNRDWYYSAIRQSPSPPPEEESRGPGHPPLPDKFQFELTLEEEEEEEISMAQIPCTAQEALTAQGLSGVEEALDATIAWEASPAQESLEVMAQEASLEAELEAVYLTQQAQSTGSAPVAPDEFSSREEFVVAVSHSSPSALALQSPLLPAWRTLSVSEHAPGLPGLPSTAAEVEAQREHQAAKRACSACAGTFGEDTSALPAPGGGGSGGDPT
Test: PDE-41A assay (Compounds of Formula II), AMP-Glo
Assay type: biochemical
PROPERTY_NAME: inhibition at 100 µM
In your response, the unit should come after the numeric value.

For the compound shown here, COc1ccc([C@@]23CC[C@@H](OC(=O)C(C)C)C[C@@H]2N(C)CC3)cc1OC , give the reported inhibition at 100 µM.
99%

GET /values?readout=inhibition at 100 µM&item= CCC(=O)O[C@@H]1C=C[C@@]2(c3ccc(OC)c(OC)c3)CCN(C)[C@H]2C1
100%

Recorded inhibition at 100 µM of COc1ccc([C@@]23CC[C@@H](OC(=O)C(C)N)C[C@@H]2N(C)CC3)cc1OC (some centres unmarked) , please.
86%

Consider the compound shown here: COc1ccc([C@@]23CC[C@@H](OC(=O)c4ccccc4)C[C@@H]2N(C)CC3)cc1OC What is its recorded inhibition at 100 µM?
99%

Item under review: COc1ccc([C@@]23C=C[C@@H](OC(=O)C(C)C)C[C@@H]2N(C)CC3)cc1OC . Reported inhibition at 100 µM?
100%

I'd like to know its inhibition at 100 µM. The compound in question is COc1ccc([C@@]23CC[C@@H](OC(=O)CN)C[C@@H]2N(C)CC3)cc1OC
48%

Quick one: inhibition at 100 µM for COc1ccc([C@@]23C=C[C@@H](OC(=O)CCCC(=O)O)C[C@@H]2N(C)CC3)cc1OC ?
95%

Requested read-out: inhibition at 100 µM. Entry: COc1ccc([C@@]23C=C[C@@H](OC(=O)CN)C[C@@H]2N(C)CC3)cc1OC
102%

----------
Molecular target: human serotonin transporter (Homo sapiens);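 note: Read-out: uptake of tritium-labelled serotonin, measured by scintillation counting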
Sequence (P31645 whole entry): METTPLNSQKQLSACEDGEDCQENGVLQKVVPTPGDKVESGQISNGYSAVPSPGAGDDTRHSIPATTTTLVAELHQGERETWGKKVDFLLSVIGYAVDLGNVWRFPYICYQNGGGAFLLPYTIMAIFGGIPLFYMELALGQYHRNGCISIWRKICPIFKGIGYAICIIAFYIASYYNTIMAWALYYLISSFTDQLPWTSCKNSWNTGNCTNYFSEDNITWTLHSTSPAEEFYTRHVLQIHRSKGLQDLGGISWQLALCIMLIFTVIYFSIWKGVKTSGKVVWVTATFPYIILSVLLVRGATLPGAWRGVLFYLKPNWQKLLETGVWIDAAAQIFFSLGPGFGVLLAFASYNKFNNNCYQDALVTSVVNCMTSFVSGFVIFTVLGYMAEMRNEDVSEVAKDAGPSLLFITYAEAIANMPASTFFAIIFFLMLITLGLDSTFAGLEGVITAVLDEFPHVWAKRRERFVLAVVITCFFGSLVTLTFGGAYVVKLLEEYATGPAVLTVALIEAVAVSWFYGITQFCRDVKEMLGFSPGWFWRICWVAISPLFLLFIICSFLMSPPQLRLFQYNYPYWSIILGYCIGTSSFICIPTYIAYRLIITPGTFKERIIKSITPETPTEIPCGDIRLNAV
Details: 10 µM
PROPERTY_NAME: inhibition (%)
All answers are understood in %, so give the number only.

For CCCCOc1cc([C@@]23CCC(=O)C[C@@H]2N(C)CC3)ccc1OCC [Compound 20] , what is its reported inhibition?
100

inhibition for CCOc1ccc([C@@]23CCC(=O)C[C@@H]2N(C)CC3)cc1OC1CCCC1 [Compound 27] ?
96

Item [2H]C([2H])([2H])Oc1cc([C@@]23CCC(=O)C[C@@H]2N(C)CC3)ccc1OC [Compound 5] has what recorded inhibition?
98

Any idea what inhibition was measured for CCOc1ccc([C@@]23CCC(=O)C[C@@H]2N(C)CC3)cc1O [Compound 16] ?
98

----------
Give inhibition at 30 µM for every item shown.
Target: human recombinant PDE-4D2 (Homo sapiens)
Sequence (Q08499 303-809): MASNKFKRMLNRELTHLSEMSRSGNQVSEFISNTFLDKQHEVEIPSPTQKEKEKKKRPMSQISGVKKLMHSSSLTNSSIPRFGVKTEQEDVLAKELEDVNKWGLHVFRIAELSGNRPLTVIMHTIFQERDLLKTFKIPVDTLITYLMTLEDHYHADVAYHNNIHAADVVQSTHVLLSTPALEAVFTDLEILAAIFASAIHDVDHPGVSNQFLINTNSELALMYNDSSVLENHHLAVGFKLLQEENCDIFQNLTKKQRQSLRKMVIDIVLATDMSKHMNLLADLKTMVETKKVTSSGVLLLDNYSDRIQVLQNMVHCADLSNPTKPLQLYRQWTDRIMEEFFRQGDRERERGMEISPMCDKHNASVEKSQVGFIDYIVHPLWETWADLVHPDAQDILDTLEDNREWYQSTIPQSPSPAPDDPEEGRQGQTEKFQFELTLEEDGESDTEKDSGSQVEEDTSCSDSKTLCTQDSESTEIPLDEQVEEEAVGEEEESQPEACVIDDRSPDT
Assay: PDE4-D2 assay (Compounds of Formula I), SPA
Type: biochemical
Settings: 30 μM; relative to Ro 20-1724
Output should be the measured figure followed by the unit it is expressed in.

Can you share its inhibition at 30 µM? I mean this compound: [2H]C([2H])([2H])Oc1cc([C@@]23CCC(=O)C[C@@H]2N(C)CC3)ccc1OC [Compound 5]
94%

Would you kindly share the measured inhibition at 30 µM for CCOc1ccc([C@@]23CCC(=O)C[C@@H]2N(C)CC3)cc1SC [Compound 17] ?
74%

Name the recorded inhibition at 30 µM for CC(C)Oc1ccc([C@@]23CCC(=O)C[C@@H]2N(C)CC3)cc1OCC1CC1 [Compound 22] .
37%

Item CCOc1ccc([C@@]23CCC(=O)C[C@@H]2N(C)CC3)cc1OC1CCCCC1 [Compound 23] has what recorded inhibition at 30 µM?
93%

Query: inhibition at 30 µM; subject: CCCCOc1cc([C@@]23CCC(=O)C[C@@H]2N(C)CC3)ccc1OCC [Compound 20]
92%

Would you kindly share the measured inhibition at 30 µM for COc1ccc([C@@]23CCC(=O)C[C@@H]2N(C)CC3)cc1OC1CCCCC1 [Compound 14] ?
97%

Values from patent US20250091992A1
